Molecular target: sGC α1/β1 heterodimer (Homo sapiens, UniProt Q02108+Q02153)
Construct: expressed in transfected cells; host or cells: CHO-K1 (clone #7, CHO-K1/sGC)
Assay: Cell-based sGC functional assay (CASA assay): cGMP generation in CHO-K1/sGC cells, HTRF detection
Details: CHO-K1, percent activation relative to standard Compound A in CHO-K1/sGC cells; read-out: % Act.
Known Emax of a selection of molecules
Write the number in % without appending the unit.

QUERY: Which Emax value is on record for CC1(C)C(=O)Nc2nc(-c3cn4c(Br)cnc4c(CCC(F)(F)C(F)(F)F)n3)nc(N)c21 ?
RESULT: 20

QUERY: Which Emax value is on record for Cc1cc(Cl)cnc1C1(C2CC2)C(=O)Nc2nc(-c3cn4ccnc4c(CCCC(F)(F)F)n3)nc(N)c21 (single isomer, unassigned) [Example 364A] ?
RESULT: 138

---

Target: sGC α1/β1 heterodimer (Homo sapiens, UniProt Q02108+Q02153)
Construct: expressed in transfected cells; host or cells: CHO-K1 (clone #7, CHO-K1/sGC)
Sequence (Q02108 1-690): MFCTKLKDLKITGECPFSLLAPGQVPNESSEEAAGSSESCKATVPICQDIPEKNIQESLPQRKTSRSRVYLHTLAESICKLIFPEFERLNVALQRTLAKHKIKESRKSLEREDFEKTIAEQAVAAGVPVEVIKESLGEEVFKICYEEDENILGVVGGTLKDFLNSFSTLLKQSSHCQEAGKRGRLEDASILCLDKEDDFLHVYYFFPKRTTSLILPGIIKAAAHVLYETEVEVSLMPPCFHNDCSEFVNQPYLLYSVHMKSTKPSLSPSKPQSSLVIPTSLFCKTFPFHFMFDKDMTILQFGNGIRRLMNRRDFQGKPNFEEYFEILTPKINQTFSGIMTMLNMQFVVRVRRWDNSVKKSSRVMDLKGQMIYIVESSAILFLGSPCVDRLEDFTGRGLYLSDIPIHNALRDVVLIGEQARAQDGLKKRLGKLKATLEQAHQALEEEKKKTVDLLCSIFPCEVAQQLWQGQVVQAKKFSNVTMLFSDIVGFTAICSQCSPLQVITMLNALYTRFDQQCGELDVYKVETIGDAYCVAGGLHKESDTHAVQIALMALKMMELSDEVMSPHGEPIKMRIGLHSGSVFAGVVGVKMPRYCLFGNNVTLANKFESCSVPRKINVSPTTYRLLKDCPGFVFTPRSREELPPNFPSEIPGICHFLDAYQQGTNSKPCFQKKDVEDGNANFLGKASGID
Sequence (Q02153 1-619): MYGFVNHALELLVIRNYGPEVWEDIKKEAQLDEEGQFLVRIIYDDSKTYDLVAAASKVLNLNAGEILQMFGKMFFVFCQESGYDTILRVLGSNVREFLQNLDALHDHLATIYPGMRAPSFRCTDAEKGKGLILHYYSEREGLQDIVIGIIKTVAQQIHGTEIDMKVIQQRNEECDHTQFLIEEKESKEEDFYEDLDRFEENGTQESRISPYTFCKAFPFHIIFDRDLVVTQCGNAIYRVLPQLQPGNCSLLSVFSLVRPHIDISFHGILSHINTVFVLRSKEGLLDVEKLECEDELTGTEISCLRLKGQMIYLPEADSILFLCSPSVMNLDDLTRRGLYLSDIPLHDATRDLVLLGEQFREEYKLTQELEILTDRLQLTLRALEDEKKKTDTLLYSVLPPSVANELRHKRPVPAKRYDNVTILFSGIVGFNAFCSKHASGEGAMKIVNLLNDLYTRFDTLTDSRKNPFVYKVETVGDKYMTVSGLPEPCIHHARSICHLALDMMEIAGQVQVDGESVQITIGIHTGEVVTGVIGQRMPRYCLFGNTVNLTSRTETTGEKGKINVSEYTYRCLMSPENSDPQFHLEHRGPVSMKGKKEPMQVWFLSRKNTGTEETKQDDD
Assay: Cell-based sGC functional assay (CASA assay): cGMP generation in CHO-K1/sGC cells, HTRF detection
Settings: CHO-K1, percent activation relative to standard Compound A in CHO-K1/sGC cells; read-out: % Act.
Protocol: Biological Assay 1: Cell-Based sGC Functional Assay (CASA Assay) sGC is a heme-containing enzyme that converts GTP to secondary messenger cGMP. […] A CHO-K1 cell line stably expressing the sGC α1/β1 heterodimer was generated using a standard transfection protocol. […] The level of intracellular cGMP was determined using an HTRF-based assay kit (CisBio, 62GM2PEC), which detects the displacement of a fluorescence labeled cGMP from its specific antibody. […]
Known Emax of a selection of compounds
Write the number in % without appending the unit.

Study these solved cases before continuing.
CC1(c2ccc(Cl)c(Cl)c2)C(=O)Nc2nc(-c3cn4ccnc4c(CCC(F)(F)F)n3)nc(N)c21 (stereo not shown) [Example 186A] | 129
CC1(c2ccc(Cl)cc2)C(=O)Nc2nc(-c3cn4ccnc4c(CCC(F)(F)F)n3)nc(N)c21 (stereo not shown) [Example 182A] | 120
CC1(C(=O)NC2CC2)C(=O)Nc2nc(-c3cn4cc(C(F)(F)F)nc4c(Cc4cccc(F)c4F)n3)nc(N)c21 (stereo not shown) [Example 43A] | 86
CC1(c2ccc(F)cc2)C(=O)Nc2nc(-c3cn4ccnc4c(CCCC(F)(F)F)n3)nc(N)c21 (stereo not shown) [Example 211A] | 122
Cc1nc(C2(C3CC3)C(=O)Nc3nc(-c4cn5ccnc5c(CCC(F)(F)C(F)(F)F)n4)nc(N)c32)ccc1F (single isomer, unassigned) [Example 363B] | 186

QUERY: Which Emax value is on record for CC1(c2ccccc2)C(=O)Nc2nc(-c3cn4ccnc4c(Cc4ccccc4)n3)nc(N)c21 (stereo not shown) [Example 102B] ?
RESULT: 89

---

Biological target: sGC α1/β1 heterodimer (Homo sapiens, UniProt Q02108+Q02153)
Experiment: Cell-based sGC functional assay (CASA assay): cGMP generation in CHO-K1/sGC cells, HTRF detection
Settings: inflection point (IP) of cGMP generation in CHO-K1/sGC cells, 4P fit; activity expressed as percentage of Compound A
hey, just use 1.0 if measured EC50 is less than 100 nM, otherwise 0.0

Worked cases, answers included:
CCCCc1nc(-c2nc(N)c3c(n2)NC(=O)C3(C)c2ccc(F)cn2)cn2ccnc12 (stereo not shown) [Example 16B] | 0.0
CCCCc1nc(-c2nc(N)c3c(n2)NC(=O)C3(C)c2ccc(C(F)(F)F)cn2)cn2c(C)cnc12 (stereo not shown) [Example 167B] | 1.0
CC1(c2ccc(F)cc2)C(=O)Nc2nc(-c3cn4cc(C(F)(F)F)nc4c(Cc4ccc(F)cc4)n3)nc(N)c21 (stereo not shown) [Example 155A] | 0.0
CC1(c2cccc(F)c2)C(=O)Nc2nc(-c3cn4ccnc4c(CCC(F)(F)F)n3)nc(N)c21 (stereo not shown) [Example 191A] | 0.0
CC(C)(C)CCc1nc(-c2nc(N)c3c(n2)NC(=O)C3(C)c2ccc(F)cn2)cn2ccnc12 (stereo not shown) [Example 122B] | 1.0
Cc1ccc(C2(C)C(=O)Nc3nc(-c4cn5ccnc5c(CCC(F)(F)F)n4)nc(N)c32)cc1 (stereo not shown) [Example 185A] | 0.0

Next, consider the following molecule.
QUERY: API: query returns whether the molecule falls strictly under 100 nM in EC50. Query: CCc1cnc2c(CCC(F)(F)C(F)(F)F)nc(-c3nc(N)c4c(n3)NC(=O)C4(C)c3ccc(F)cc3)cn12 (stereo not shown) [Example 161A]
RESULT: 0.0

---

Target: sGC α1/β1 heterodimer (Homo sapiens, UniProt Q02108+Q02153)
Construct: expressed in transfected cells; host or cells: CHO-K1 (clone #7, CHO-K1/sGC)
Assay: Cell-based sGC functional assay (CASA assay): cGMP generation in CHO-K1/sGC cells, HTRF detection
Conditions: CHO-K1, percent activation relative to standard Compound A in CHO-K1/sGC cells; read-out: % Act.
ASSAY_ENDPOINT: Emax (%)
Write the number in % without appending the unit.

Study these solved cases before continuing.
CC1(c2ccc(Cl)cn2)C(=O)Nc2nc(-c3cn4ccnc4c(CC4CCC4)n3)nc(N)c21 (stereo not shown) [Example 116A] | 79
C[C@@H]1CN(c2nc(-c3cn4ccnc4c(CCC(F)(F)C(F)(F)F)n3)nc3c2C(C)(c2ccc(F)cc2)C(=O)N3)C[C@H](C)O1 (stereo partly shown) [Example 303A] | 101

QUERY: Reported Emax for sGC α1/β1 heterodimer (Homo sapiens, UniProt Q02108+Q02153), given Cc1ncc(C2(C3CC3)C(=O)Nc3nc(-c4cn5ccnc5c(CCC(F)(F)C(F)(F)F)n4)nc(N)c32)cn1 (single isomer, unassigned) [Example 348B] ?
RESULT: 175

QUERY: Reported Emax for sGC α1/β1 heterodimer (Homo sapiens, UniProt Q02108+Q02153), given COCCNc1nc(-c2cn3ccnc3c(CCC(F)(F)C(F)(F)F)n2)nc2c1C(C)(C)C(=O)N2 ?
RESULT: 93

QUERY: Reported Emax for sGC α1/β1 heterodimer (Homo sapiens, UniProt Q02108+Q02153), given CC1(c2ccc(F)cc2)C(=O)Nc2nc(-c3cn4ccnc4c(CCC(F)(F)C(F)(F)F)n3)nc(N3CCC3)c21 (stereo not shown) [Example 306A] ?
RESULT: 108

QUERY: Reported Emax for sGC α1/β1 heterodimer (Homo sapiens, UniProt Q02108+Q02153), given CC1(c2ccc(F)cc2)C(=O)Nc2nc(-c3cn4ccnc4c(CCCc4ccccc4)n3)nc(N)c21 (stereo not shown) ?
RESULT: 109

QUERY: Reported Emax for sGC α1/β1 heterodimer (Homo sapiens, UniProt Q02108+Q02153), given CN(C)C(=O)c1cccc(C2(C)C(=O)Nc3nc(-c4cn5ccnc5c(CCC(F)(F)C(F)(F)F)n4)nc(N)c32)c1 (stereo not shown) [Example 271B] ?
RESULT: 95
